tested on: A375 cells; experiment: Tumor cell line proliferation assay (CellTiter Glo), A375; assay type: cell-based; details: Homo sapiens, A-375, 96 h, read-out: A375 (V599E) Cell Proliferation IC50
Overview of reported IC50 across a group of compounds:

Example entries begin here.
[Q] Please look up its IC50: O=C1Nc2cc3[nH]nc(-c4ccncc4)c3cc2CN1Cc1ccccc1 [Example 1]
[A] ≤ 250 nM

[Q] Please look up its IC50: CC(c1ccccc1)c1cc2cc3c(-c4cnn(C)c4)n[nH]c3cc2[nH]c1=O (stereo not drawn) [Example 333]
[A] ≤ 250 nM

[Q] Please look up its IC50: C[C@H](c1ccccc1)c1cc2cc3c(NC4CCOCC4)n[nH]c3cc2[nH]c1=O [Example 357]
[A] ≤ 250 nM

[Q] Please look up its IC50: Cc1cc(-c2n[nH]c3cc4c(cc23)CN([C@@H]2CCCN(Cc3ccc(F)cc3)C2)C(=O)N4)ccn1 [Example 151]
[A] ≤ 250 nM

[Q] Please look up its IC50: Cc1cc(-c2n[nH]c3cc4c(cc23)CN([C@@H]2CN(CC(F)(F)F)C[C@H]2C(F)(F)F)C(=O)N4)ccn1 [Example 331]
[A] 250 to 1000 nM

---
[Q] Please look up its IC50: COc1ncccc1CN1Cc2cc3c(-c4ccnc(C)c4)n[nH]c3cc2NC1=O [Example 9]
[A] > 1000 nM

[Q] Please look up its IC50: Cc1cc(-c2n[nH]c3cc4c(cc23)CN([C@@H]2CN(CC(F)(F)F)C[C@H]2c2ccccc2)C(=O)N4)cc(C)n1 [Example 242]
[A] 250 to 1000 nM

[Q] Please look up its IC50: COc1cc(-c2n[nH]c3cc4c(cc23)CN([C@@H]2CCCN(Cc3ccccc3)C2)C(=O)N4)ccn1 [Example 270]
[A] ≤ 250 nM

[Q] Please look up its IC50: CC(c1ccccc1)c1cc2cc3c(-c4ccc(N5CCOCC5)nc4)n[nH]c3cc2[nH]c1=O (stereo not drawn) [Example 324]
[A] ≤ 250 nM

[Q] Please look up its IC50: Cc1cc(-c2n[nH]c3cc4c(cc23)CN([C@@H]2CCCN(Cc3cccnc3C(F)(F)F)C2)C(=O)N4)ccn1 [Example 161]
[A] 250 to 1000 nM

[Q] Please look up its IC50: COc1ncc(-c2n[nH]c3cc4c(cc23)CN([C@@H]2CCCN(Cc3ccccc3)C2)C(=O)N4)cn1 [Example 104]
[A] ≤ 250 nM

[Q] Please look up its IC50: C=C(c1ccccc1)c1cc2cc3c(-c4ccnc(C)c4)n[nH]c3cc2[nH]c1=O [Example 269]
[A] ≤ 250 nM

[Q] Please look up its IC50: Cn1cc(-c2n[nH]c3cc4c(cc23)CN([C@@H]2CCCN(Cc3ccccc3)C2)C(=O)N4)cn1 [Example 285]
[A] ≤ 250 nM

[Q] Please look up its IC50: Cc1cc(-c2n[nH]c3cc4c(cc23)CN([C@@H]2CCCN(Cc3cccc(F)c3F)C2)C(=O)N4)ccn1 [Example 185]
[A] ≤ 250 nM

[Q] Please look up its IC50: Cc1cc(-c2n[nH]c3cc4c(cc23)CN([C@@H]2CN(CC(F)(F)F)C[C@H]2c2ccccc2)C(=O)N4)ccn1 [Example 222]
[A] 250 to 1000 nM

[Q] Please look up its IC50: Cc1cc(-c2n[nH]c3cc4c(cc23)CN([C@@H]2CCCN(Cc3cccc(Cl)c3)C2)C(=O)N4)ccn1 [Example 156]
[A] ≤ 250 nM

[Q] Please look up its IC50: Cc1cc(-c2n[nH]c3cc4c(cc23)CN([C@@H]2CCCN(C(C)C(F)(F)F)C2)C(=O)N4)ccn1 (stereo partly drawn) [Example 216]
[A] 250 to 1000 nM
